System: HOP-92 NSCLC
Experiment: NCI-60 one-dose screen, 48 h
Conditions: 10 µM unless noted
Experimental: Growth inhibition of the HOP-92 human Non-Small Cell Lung tumor cell line is measured as a screen for anti-cancer activity. Cells are grown in 96 well plates and exposed to the test compound for 48 hours. Compounds are tested at a single concentration, which is 10^-5 M for most compounds. The reported endpoint is percent growth (GI% or GIPRCNT), where numbers from 0 - 100% represent growth inhibition, and numbers from -100% - 0 represent cell death. […]
The panel holds about 83,000 compounds, 20% with a hit somewhere; the sample as a whole holds those more often. Activity calls are given as the source filed them. How the source made its calls: active means growth percent below 10; inactive means the rest.
Labels: active, inactive

COMPOUND_STRUCTURE	CLASS_ASSIGNMENT
CNC(=O)c1cc(Oc2ccc3nc(NC(=O)Nc4ccc(F)cc4F)sc3c2)ccn1	active
CN1CCN(c2ccc(Nc3ncc4[nH]c(=O)n(Cc5ccccc5N)c4n3)cc2)CC1	inactive
C=C(C)[C@@H]1CC[C@]2(COC(=O)c3cccnc3)CC[C@]3(C)[C@H](CC[C@@H]4[C@@]5(C)CCCN(C(=O)c6cccnc6)C(C)(C)[C@@H]5CC[C@]43C)[C@@H]12	inactive
N=C(N)c1ccc(-c2ccc(-c3ccc(Cl)cc3Cl)s2)nc1	inactive
